Where do the numbers come from? From PubChem BioAssay.

- Assay system: E3 ubiquitin-protein ligase XIAP (Homo sapiens) (UniProt P98170)
- Sequence (P98170 whole entry, looked up): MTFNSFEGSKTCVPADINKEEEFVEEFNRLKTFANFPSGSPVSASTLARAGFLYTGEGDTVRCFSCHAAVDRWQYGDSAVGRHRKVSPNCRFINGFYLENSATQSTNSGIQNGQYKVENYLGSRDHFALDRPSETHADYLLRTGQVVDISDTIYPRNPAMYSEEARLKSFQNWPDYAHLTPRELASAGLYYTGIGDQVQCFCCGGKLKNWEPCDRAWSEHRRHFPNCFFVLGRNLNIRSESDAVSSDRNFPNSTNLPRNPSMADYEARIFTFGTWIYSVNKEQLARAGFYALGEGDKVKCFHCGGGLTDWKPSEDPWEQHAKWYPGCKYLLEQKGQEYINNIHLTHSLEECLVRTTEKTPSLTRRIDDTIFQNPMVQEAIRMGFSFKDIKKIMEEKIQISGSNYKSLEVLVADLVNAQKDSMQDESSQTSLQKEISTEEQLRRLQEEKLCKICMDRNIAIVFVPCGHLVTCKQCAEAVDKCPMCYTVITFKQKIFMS
- Experimental protocol: XIAP binders, primary screen, biophysical, small-molecule microarray, fluorescence 635 nm (AID 1181);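 further: score merges 667 nm emission and signal to noise over triplicate slides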
- Run conditions: small-molecule microarray binding, higher = more signal
Outcome label depends on composite z-score relative to 0.09: at/above gives yes (1), below gives no (0).

COc1cccc(C)c1NC(=O)O[C@H]1[C@H](OC(=O)Nc2ccccc2)[C@@H](OC(=O)Nc2ccccc2)[C@@H](OC)O[C@@H]1CO : no (0)
COC(=O)[C@@]1(Cc2ccc(OC)cc2)[C@@H]2[C@@H](CC(=O)[C@H]2CC(=O)C(=O)N(C)C)CN1C(=O)c1ccccc1 : yes (1)
Cc1ccc(S[C@]2(C(=O)NCc3ccccc3)CC(=O)N(Cc3ccccc3Cl)[C@@H]2c2ccc(CO)cc2)cc1 : no (0)
CCCCC(=C=CC[C@@H](O)c1ccccc1OCCO)C[C@@H](O)c1ccccn1 : no (0)

Exam item: decide whether the reported composite z-score for CC(C)C(=C=CC[C@H](O)c1cccc(OCCO)c1)C[C@H](O)c1ccccn1 is at least 0.09.
no (0)

Confirm if composite z-score reported for the molecule C=CCNC(=O)[C@@H]1[C@H]2C(=O)O[C@H](c3ccccc3)[C@H](c3ccccc3)N2[C@H](c2ccc(O)cc2)[C@@]12C(=O)N(C(=O)OCCOC)c1ccc(C#CCC(C(=O)OC)C(=O)OC)cc12 is 0.09 or above.
no (0)

Given COC(=O)[C@@]1(Cc2ccccc2)[C@H]2c3cc(C(=O)N(C)C)n(Cc4ccc(Cl)c(C(F)(F)F)c4)c3C[C@H]2CN1C(=O)c1ccccc1 , state whether its composite z-score is at least 0.09.
yes (1)
